Target: P450 2A13 (Homo sapiens, UniProt Q16696)
Sequence (Q16696 1-494): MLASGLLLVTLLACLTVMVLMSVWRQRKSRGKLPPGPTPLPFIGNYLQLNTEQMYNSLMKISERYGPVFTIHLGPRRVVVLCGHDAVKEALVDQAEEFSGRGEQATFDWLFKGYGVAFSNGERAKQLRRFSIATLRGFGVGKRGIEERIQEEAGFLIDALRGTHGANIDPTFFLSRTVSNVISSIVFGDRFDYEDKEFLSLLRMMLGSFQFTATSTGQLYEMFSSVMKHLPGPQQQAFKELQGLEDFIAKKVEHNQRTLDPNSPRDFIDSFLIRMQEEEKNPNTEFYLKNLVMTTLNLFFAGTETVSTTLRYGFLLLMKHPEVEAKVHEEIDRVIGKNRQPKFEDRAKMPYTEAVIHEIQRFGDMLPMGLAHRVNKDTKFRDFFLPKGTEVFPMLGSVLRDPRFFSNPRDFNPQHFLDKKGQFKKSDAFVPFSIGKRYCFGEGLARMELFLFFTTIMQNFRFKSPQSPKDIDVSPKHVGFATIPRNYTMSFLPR
Assay: Spectral binding titration with purified recombinant P450 2A13
Details: Type I binding; 1 µM P450; means ± SE
VALUE_KIND: ΔAmax

The cases that follow already have their ΔAmax on record.
MOLECULE: N#C[Se]Cc1ccc(C[Se]C#N)cc1 [p-XSC, 1,4-phenylenebis(methylene)selenocyanate]
ΔAmax: 69 ± 2.6 × 10^−3

MOLECULE: N#C[Se]Cc1ccccc1C[Se]C#N [o-XSC, 1,2-phenylenebis(methylene)selenocyanate]
ΔAmax: 69 ± 0.49 × 10^−3

For each entry beneath this line, provide reported ΔAmax.
1. N#C[Se]Cc1cccc(C[Se]C#N)c1 [m-XSC, 1,3-phenylenebis(methylene)selenocyanate]
2. N#C[Se]Cc1ccccc1 [BSC, benzyl selenocyanate]

1: 79 ± 0.91 × 10^−3; 2: 94 ± 1.5 × 10^−3

----------
Target: P450 1A1 (Homo sapiens)
Test: Spectral binding titration with purified recombinant P450 1A1
VALUE_KIND: pKd
Give bare numbers, as −log10 of the molar value.

COMPOUND: N#C[Se]Cc1ccc(C[Se]C#N)cc1 [p-XSC, 1,4-phenylenebis(methylene)selenocyanate]
STUDY_TARGET: P450 1A1 (Homo sapiens)
pKd: 4.72

For each entry beneath this line, provide reported pKd.
1. N#C[Se]Cc1ccccc1C[Se]C#N [o-XSC, 1,2-phenylenebis(methylene)selenocyanate]
2. N#C[Se]Cc1ccccc1 [BSC, benzyl selenocyanate]
3. N#C[Se]Cc1cccc(C[Se]C#N)c1 [m-XSC, 1,3-phenylenebis(methylene)selenocyanate]

1. 4.59
2. 4.64
3. 4.52

----------
Record type: IC50 measurement. Applies to: P450 1A1 (Homo sapiens, UniProt P04798)
Field: value (include unit after the number)

The cases that follow already have their IC50 on record.
COMPOUND: N#C[Se]Cc1ccc(C[Se]C#N)cc1 [p-XSC, 1,4-phenylenebis(methylene)selenocyanate]
STUDY_TARGET: P450 1A1 (Homo sapiens, UniProt P04798)
Sequence (P04798 whole entry): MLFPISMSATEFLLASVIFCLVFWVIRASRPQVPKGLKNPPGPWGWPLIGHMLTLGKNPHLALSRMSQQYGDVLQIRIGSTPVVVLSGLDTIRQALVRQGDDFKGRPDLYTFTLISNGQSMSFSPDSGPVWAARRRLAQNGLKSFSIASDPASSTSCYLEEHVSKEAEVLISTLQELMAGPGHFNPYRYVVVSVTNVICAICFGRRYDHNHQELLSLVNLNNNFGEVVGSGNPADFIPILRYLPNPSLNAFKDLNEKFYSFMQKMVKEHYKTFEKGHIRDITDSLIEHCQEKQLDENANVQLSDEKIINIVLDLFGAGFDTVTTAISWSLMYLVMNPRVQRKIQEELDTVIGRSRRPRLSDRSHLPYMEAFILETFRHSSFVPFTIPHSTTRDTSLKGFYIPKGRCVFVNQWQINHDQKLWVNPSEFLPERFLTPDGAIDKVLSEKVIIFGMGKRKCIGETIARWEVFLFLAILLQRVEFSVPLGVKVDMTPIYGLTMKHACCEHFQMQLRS
IC50: 260 nM

COMPOUND: N#C[Se]Cc1ccccc1 [BSC, benzyl selenocyanate]
STUDY_TARGET: P450 1A1 (Homo sapiens, UniProt P04798)
IC50: 450 nM

Continue with the compound presented below.
# input compound: N#C[Se]Cc1ccccc1C[Se]C#N [o-XSC, 1,2-phenylenebis(methylene)selenocyanate] ; wanted: its IC50
110 nM

----------
Record type: pIC50 measurement. Applies to: P450 1A2 (Homo sapiens, UniProt P05177)
Give bare numbers, as −log10 of the molar value.

MOLECULE: N#C[Se]Cc1ccccc1 [BSC, benzyl selenocyanate]
STUDY_TARGET: P450 1A2 (Homo sapiens, UniProt P05177)
Sequence (P05177 whole entry): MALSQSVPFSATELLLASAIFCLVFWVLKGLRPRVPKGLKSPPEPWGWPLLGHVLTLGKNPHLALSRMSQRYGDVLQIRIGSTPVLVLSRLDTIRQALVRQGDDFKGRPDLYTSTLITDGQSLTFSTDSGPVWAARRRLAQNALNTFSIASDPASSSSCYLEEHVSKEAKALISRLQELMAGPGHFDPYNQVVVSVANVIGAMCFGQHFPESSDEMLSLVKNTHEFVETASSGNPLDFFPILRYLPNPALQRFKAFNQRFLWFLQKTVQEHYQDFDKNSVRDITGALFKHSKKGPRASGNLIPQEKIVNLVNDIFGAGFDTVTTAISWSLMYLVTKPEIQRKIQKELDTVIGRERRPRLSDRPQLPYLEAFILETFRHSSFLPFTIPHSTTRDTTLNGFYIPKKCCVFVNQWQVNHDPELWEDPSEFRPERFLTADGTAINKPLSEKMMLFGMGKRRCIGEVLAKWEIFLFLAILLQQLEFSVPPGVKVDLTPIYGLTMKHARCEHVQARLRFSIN
pIC50: 5.89

For each entry beneath this line, provide reported pIC50.
1. N#C[Se]Cc1ccc(C[Se]C#N)cc1 [p-XSC, 1,4-phenylenebis(methylene)selenocyanate]
2. N#C[Se]Cc1ccccc1C[Se]C#N [o-XSC, 1,2-phenylenebis(methylene)selenocyanate]

6.20
6.41

----------
Molecular target: P450 2A6 (Homo sapiens)
Sequence (P11509 whole entry): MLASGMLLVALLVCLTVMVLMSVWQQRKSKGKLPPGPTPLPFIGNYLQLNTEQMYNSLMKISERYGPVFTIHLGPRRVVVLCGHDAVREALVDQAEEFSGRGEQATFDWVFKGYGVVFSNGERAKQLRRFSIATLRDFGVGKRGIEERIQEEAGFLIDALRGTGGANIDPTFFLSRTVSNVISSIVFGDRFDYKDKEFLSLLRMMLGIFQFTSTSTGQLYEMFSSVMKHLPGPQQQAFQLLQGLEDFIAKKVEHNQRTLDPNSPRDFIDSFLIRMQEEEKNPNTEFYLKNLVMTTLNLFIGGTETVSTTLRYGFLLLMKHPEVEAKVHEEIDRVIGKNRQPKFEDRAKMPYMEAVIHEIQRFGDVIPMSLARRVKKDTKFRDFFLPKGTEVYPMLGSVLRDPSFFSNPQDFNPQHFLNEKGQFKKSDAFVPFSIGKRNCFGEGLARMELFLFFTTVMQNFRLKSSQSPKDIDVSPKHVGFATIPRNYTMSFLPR
For each record, write down the corresponding pIC50.
Numbers only, as −log10 of the molar value.

The cases that follow already have their pIC50 on record.
COMPOUND: N#C[Se]Cc1ccccc1 [BSC, benzyl selenocyanate]
STUDY_TARGET: P450 2A6 (Homo sapiens)
REPORTED_VALUE: 5.37

COMPOUND: N#C[Se]Cc1ccccc1C[Se]C#N [o-XSC, 1,2-phenylenebis(methylene)selenocyanate]
STUDY_TARGET: P450 2A6 (Homo sapiens)
REPORTED_VALUE: 5.57

COMPOUND: N#C[Se]Cc1cccc(C[Se]C#N)c1 [m-XSC, 1,3-phenylenebis(methylene)selenocyanate]
STUDY_TARGET: P450 2A6 (Homo sapiens)
REPORTED_VALUE: 5.62

Continue with the compound presented below.
# input compound: N#C[Se]Cc1ccc(C[Se]C#N)cc1 [p-XSC, 1,4-phenylenebis(methylene)selenocyanate] ; wanted: its pIC50
5.21
